System: 786-0 renal
measurement.notes: NCI-60 one-dose screen, 48 h
experimental.conditions: 10 µM unless noted
This is part of a sample that, as a whole, favours compounds with a hit. Of some 83,000 tested, about 20% had one in any assay. Activity calls are given as the source filed them. Rule for the calls: active = growth percent below 10; inactive = the rest.
Outcomes: active, inactive

INSERT INTO measurements (compound, class) VALUES
  ('CCCNS(=O)(=O)c1ccc(Cl)cc1', 'inactive'),
  ('BrCc1cccc(C[P+](c2ccccc2)(c2ccccc2)c2ccccc2)c1', 'inactive'),
  ('NCC(O)C(O)C(O)C(O)CO (configuration not stated)', 'inactive'),
  ('Cc1ccc(C(C)C)c(OCC(=O)O)c1', 'inactive'),
  ('N=C(N)c1nn(C2OC(CO)C(O)C2O)c2nc[nH]c(=O)c12 (configuration not stated)', 'active'),
  ('COc1cccc(C(=O)O)c1OC', 'inactive'),
  ('OCc1cccnc1', 'inactive'),
  ('C=CCOc1ccc(Cl)cc1Cl', 'inactive'),
  ('C=CCC(OC(C)=O)c1ccc(C(C)C)cc1 (configuration not stated)', 'inactive'),
  ('CCc1ccccc1C(=O)N(CC)CC', 'inactive'),
  ('CCC(/C=C\C(C)=O)CC', 'inactive'),
  ('c1ccc2c(NCCCN3CCN(CCCNc4c5ccccc5nc5ccccc45)CC3)c3ccccc3nc2c1', 'active'),
  ('O=C(O)Cc1cccc2ccccc12', 'inactive'),
  ('Cc1ccc(C)c2c1CCC2=O', 'inactive'),
  ('C1=NCCc2ccccc21', 'inactive'),
  ('CCOc1ccncc1[N+](=O)[O-]', 'inactive'),
  ('O=C(Nc1ccccc1)c1ccco1', 'inactive'),
  ('Nc1nc(N)nc(N2CCCCC2)n1', 'inactive'),
  ('C(=C\c1ccncc1)/c1ccncc1', 'inactive'),
  ('Oc1cccc(CNC2CCCCC2)c1', 'inactive'),
  ('C[n+]1cc2cc3c(cc2c2ccccc21)OCO3', 'inactive'),
  ('CC(=O)NC(CCC(=O)c1ccccc1)C(=O)O (configuration not stated)', 'inactive'),
  ('COc1ccc2c(Cl)cc(NC(=O)Nc3c(C)cccc3C)nc2c1', 'inactive'),
  ('O=c1nc(Nc2cccc(Cl)c2)oc2cc(Cl)oc(=O)c12', 'inactive'),
  ('COc1cc(OC)c(NC(=O)C(Sc2nc(C)cc(C)c2C#N)c2ccccc2)cc1Cl (configuration not stated)', 'inactive'),
  ('COc1ccc(C(=O)C(=O)c2ccccc2)cc1', 'inactive'),
  ('C=CCc1cc(OC)c(OC)c(OC)c1', 'inactive');

###

System: PC-3 prostate
measurement.notes: NCI-60 one-dose screen, 48 h (100 = growth as untreated, 0 = no growth, -100 = all killed)
experimental.conditions: 10 µM unless noted
The panel holds about 83,000 compounds, 20% with a hit somewhere; the sample as a whole holds those more often.
attribute.measured: growth (%)

INSERT INTO results (compound, attribute_measured, unit_of_measurement, value_observed) VALUES
  ('CC1(C)C2CCC1(C)C1(C2)OCCS1 (stereo not given)', 'growth', '%', 92.4),
  ('COC(=O)c1ccccc1C(=O)c1c(C)cc(C)cc1C', 'growth', '%', 90),
  ('O=C(NCc1ccccc1)/C(=C/c1ccccc1)NC(=O)c1ccccc1', 'growth', '%', 88.5),
  ('O=C(O)c1cccc(-n2ncc(Cl)c(Cl)c2=O)c1', 'growth', '%', 88.7),
  ('CCCCN(C=S)CCCC', 'growth', '%', 91.5);

###

Tested on: UACC-62 melanoma
measurement.notes: NCI-60 one-dose screen, 48 h
experimental.conditions: 10 µM unless noted
Compounds without any hit were thinned out: in the full panel of roughly 83,000, 20% have a hit. Active and inactive are the calls of the source. The calls were made as follows: active = growth percent below 10; inactive = the rest.
Labels: active, inactive

INSERT INTO assay_data (chemical_structure, class) VALUES
  ('CC(=O)NNC(=S)/N=C\C(C(=O)c1ccccc1)=C(/O)c1ccccc1', 'inactive'),
  ('NC(=S)N/N=C/c1ccc(Cl)cc1', 'inactive'),
  ('Nc1ncnc(Nc2ccc(C(F)(F)F)cc2)n1', 'inactive'),
  ('O=C(NC(=S)N1CC=CCC1)c1ccccc1', 'inactive'),
  ('CCN(Cc1ccc(Cl)c(Cl)c1)c1ccc2nc(N)nc(N)c2c1C', 'active'),
  ('Cc1ccc(Cc2ccc(C)cc2)cc1', 'inactive'),
  ('O=c1[nH]c(=O)c2cc(Cl)cc(Cl)c2[nH]1', 'inactive'),
  ('Cc1c(-c2ccc(C3CCCCC3)cc2)nc2ccc(F)cc2c1C(=O)O', 'inactive'),
  ('Cn1c(=O)[nH]c2ccccc2c1=O', 'inactive'),
  ('NC(CO)(CO)c1ccccc1', 'inactive'),
  ('O=C(CCl)Nc1ccccc1SCc1cc(Cl)cc2c1OCOC2', 'inactive'),
  ('c1ccc2c(NCCCN3CCN(CCCNc4c5ccccc5nc5ccccc45)CC3)c3ccccc3nc2c1', 'active'),
  ('O=S1(=O)c2ccccc2Oc2ccccc21', 'inactive');

###

Here the recorded growth is given for each entry.
Test system: NCI-H522 lung
measurement.notes: NCI-60 one-dose screen, 48 h (100 = growth as untreated, 0 = no growth, -100 = all killed)
experimental.conditions: 10 µM unless noted
This is part of a sample that, as a whole, favours compounds with a hit. Of some 83,000 tested, about 20% had one in any assay.
attribute.measured: growth (%)

INSERT INTO assay_data (molecule, attribute_measured, value_observed) VALUES
  ('CCN1CCCC(N2c3ccccc3Sc3ccccc32)C1 (centres undefined)', 'growth', 94.9),
  ('CC1CN(CCO)CC(C)O1 (centres undefined)', 'growth', 108),
  ('Nc1cc2ccccc2c(O)c1O', 'growth', 45.3),
  ('N#CCCN1C(=O)CCC1C(=O)O (centres undefined)', 'growth', 85),
  ('COc1ccc(Nc2cc(Cl)ccc2C(=O)O)cn1', 'growth', 100),
  ('COc1ccc2c(Cl)cc(NC(=O)Nc3c(C)cccc3C)nc2c1', 'growth', 78.1),
  ('Cn1c(=O)c2[nH]c(CC(=O)O)nc2n(C)c1=O', 'growth', 86.4),
  ('CCC(=O)C1C(=O)c2ccccc2C1=O', 'growth', 86.6),
  ('C/C(=N\O)c1ccccn1', 'growth', 83.2);

###

This section presents compounds with their documented growth values.
Test system: CAKI-1 renal
measurement.notes: NCI-60 one-dose screen, 48 h (100 = growth as untreated, 0 = no growth, -100 = all killed)
experimental.conditions: 10 µM unless noted
This is part of a sample that, as a whole, favours compounds with a hit. Of some 83,000 tested, about 20% had one in any assay.
attribute.measured: growth (%)

INSERT INTO measurements (compound, value_observed) VALUES
  ('C(=C\c1ccncc1)/c1ccncc1', 129),
  ('O=C1NC(=O)C(c2ccccc2)O1 (stereo unspecified)', 98),
  ('COc1cccc(C(=O)O)c1OC', 97.4),
  ('Nc1cc2c(cc1Cl)C(=O)c1ccccc1C2=O', 41.5),
  ('CC(=O)Nc1ccc(/C=C2\SC(=S)N(/C=C(\C(C)=O)C(N)=O)C2=O)cc1', 98.3),
  ('CN(C)c1ncnc2c1cnn2C', 100);

###

Tested on: HCT-116 colon
measurement.notes: NCI-60 one-dose screen, 48 h (100 = growth as untreated, 0 = no growth, -100 = all killed)
experimental.conditions: 10 µM unless noted
About 83,000 compounds went through this panel and 20% of them were active in at least one assay; those are over-represented in the sample as a whole. The source made the active and inactive calls. Rule for the calls: active = growth percent below 10; inactive = the rest.
attribute.measured: growth

INSERT INTO assay_data (compound, value_observed) VALUES
  ('CCNc1ncnc2[nH]ncc12', '105% (inactive)'),
  ('CCNc1ccc2ccccc2c1N=Nc1ccc(N=Nc2ccccc2)cc1', '72% (inactive)'),
  ('O=c1[nH]c(=O)c2cc(Cl)cc(Cl)c2[nH]1', '98.3% (inactive)'),
  ('CC(=O)NC(CCC(=O)c1ccccc1)C(=O)O (stereo unspecified)', '80.2% (inactive)'),
  ('CCOc1ccc(C(=O)NCC(C)C)cc1', '101% (inactive)'),
  ('O=Cc1ccc(F)cc1', '101% (inactive)');

###

Test system: HCC-2998 colon
measurement.notes: NCI-60 one-dose screen, 48 h (100 = growth as untreated, 0 = no growth, -100 = all killed)
experimental.conditions: 10 µM unless noted
The panel holds about 83,000 compounds, 20% with a hit somewhere; the sample as a whole holds those more often.
In this section, each of the molecules is paired with its reported growth.
attribute.measured: growth (%)

INSERT INTO assay_data (molecule, unit_of_measurement, value_observed) VALUES
  ('Cc1cc(C(=O)NN)c(C#N)c(=O)[nH]1', '%', 112),
  ('C[n+]1cc2cc3c(cc2c2ccccc21)OCO3', '%', 54.7),
  ('Cc1ccc(OC(=O)c2ccccc2)cc1', '%', 107),
  ('CC1CN(CCO)CC(C)O1 (stereo not drawn)', '%', 119),
  ('Cc1cc(CO)c(O)c(CO)c1', '%', 96.8),
  ('Cc1cc(C(=O)c2ccccc2)cc(C)c1O', '%', 102),
  ('O=S(=O)(c1ccc(NC(=S)NCc2cccnc2)cc1)N1CCCCC1', '%', 71.6),
  ('O=C(c1cccc(C(=O)c2ccc3c4c(cccc24)C(=O)N(c2ccccc2)C3=O)c1)c1ccc2c3c(cccc13)C(=O)N(c1ccccc1)C2=O', '%', 114),
  ('CC(=O)NNC(=S)/N=C\C(C(=O)c1ccccc1)=C(/O)c1ccccc1', '%', 102),
  ('O=Cc1ccc(F)cc1', '%', 104),
  ('Nc1cc(F)ccc1[N+](=O)[O-]', '%', 102),
  ('O=C1C=C(c2ccccc2)C(O)(c2ccccc2)C1 (stereo not drawn)', '%', 122),
  ('COc1cc(C(=O)NC(=S)NCc2ccncc2)cc(OC)c1OC', '%', 115),
  ('Cc1ccc(C(C)C)c(OCC(=O)O)c1', '%', 106),
  ('CC1CC2C3CCC4=CC(=O)CCC4(C)C3CCC2(C)C1(O)C(=O)CO (stereo not drawn)', '%', 104),
  ('O=C(O)CCCCCNC(=O)OCc1ccccc1', '%', 105),
  ('COc1ccc(NNS(=O)(=O)O)cc1', '%', 110),
  ('O=C1C=Cc2ccccc2/C1=C/c1[nH]c(=O)[nH]c1O', '%', 54.1);
